# procedure.details: Acute toxicity (mouse, intraperitoneal)
# condition.notes: in vivo, ip
Measured LD50 by item

Consider the following illustrative entries.
COC1C=CC=C(C)C(=O)Nc2cc(O)cc(c2O)C(OC)C(C)CC(OC)C(OC)C(C)C=C(C)C1OC(N)=O (stereo not drawn) [TAN-420E] :: 50 mg/kg
COC1C=CC=C(C)C(=O)NC2=CC(=O)C=C(C2=O)C(OC)C(C)CC(OC)C(O)C(C)C=C(C)C1OC(N)=O (stereo not drawn) [TAN-420D] :: 100 mg/kg

Lookup: Form field: reported LD50 of COC1C=CC=C(C)C(=O)Nc2cc(O)cc(c2O)C(OC)C(C)CC(OC)C(O)C(C)C=C(C)C1OC(N)=O (stereo not drawn) [TAN-420C]
Found: 200 to 400 mg/kg

Numbers sourced from patent US4540517A.
